System: Pseudomonas aeruginosa
test: Antibacterial activity against Pseudomonas aeruginosa PA14 assessed as growth inhibition after 18 to 20 hrs in presence of PMBN by broth microdilution assay
Format: functional
condition.label: time 18-20 hrs
Measured MIC, listed per entry.

{"entry.smiles": "O=C(CCCn1cc(CCN2CCN(c3cc4c(cc3F)c(=O)c(C(=O)O)cn4C3CC3)CC2)nn1)Nc1ccc(S[C@@H]2O[C@H](CO)[C@H](O)[C@H](O)[C@H]2O)cc1", "MIC, µg/mL": 32}
{"entry.smiles": "O=C(Cn1cc(CN2CCN(c3cc4c(cc3F)c(=O)c(C(=O)O)cn4C3CC3)CC2)nn1)Nc1ccc(S[C@@H]2O[C@H](CO)[C@H](O)[C@H](O)[C@H]2O)cc1", "MIC, µg/mL": 4}
{"entry.smiles": "O=C(CCn1cc(CCN2CCN(c3cc4c(cc3F)c(=O)c(C(=O)O)cn4C3CC3)CC2)nn1)Nc1ccc(S[C@@H]2O[C@H](CO)[C@H](O)[C@H](O)[C@H]2O)cc1", "MIC, µg/mL": 32}
{"entry.smiles": "O=C(CCn1cc(CN2CCN(c3cc4c(cc3F)c(=O)c(C(=O)O)cn4C3CC3)CC2)nn1)Nc1ccc(S[C@@H]2O[C@H](CO)[C@H](O)[C@H](O)[C@H]2O)cc1", "MIC, µg/mL": 8}
{"entry.smiles": "O=C(CCCCn1cc(CCN2CCN(c3cc4c(cc3F)c(=O)c(C(=O)O)cn4C3CC3)CC2)nn1)Nc1ccc(S[C@@H]2O[C@H](CO)[C@H](O)[C@H](O)[C@H]2O)cc1", "MIC, µg/mL": 32}

====

Measured inhibition at 48 h, 100 µM, listed per entry.
test: Cytotoxicity against human A549 cells assessed as growth inhibition at 100 uM after 48 hrs by MTT assay relative to control
Type: cell-based
condition.label: read-out: GI

{"entry.smiles": "C[C@@H]1O[C@H](CNS(=O)(=O)c2ccc(CCn3cc(CN4CCN(c5cc6c(cc5F)c(=O)c(C(=O)O)cn6C5CC5)CC4)nn3)s2)[C@@H](O)[C@H](O)[C@@H]1O", "inhibition at 48 h, 100 µM (%)": -9}
{"entry.smiles": "O=C(Cn1cc(CN2CCN(c3cc4c(cc3F)c(=O)c(C(=O)O)cn4C3CC3)CC2)nn1)Nc1ccc(S[C@@H]2O[C@H](CO)[C@H](O)[C@H](O)[C@H]2O)cc1", "inhibition at 48 h, 100 µM (%)": 5}
{"entry.smiles": "O=C(O)c1cn(C2CC2)c2cc(N3CCNCC3)c(F)cc2c1=O", "inhibition at 48 h, 100 µM (%)": 18}

====

Measured log10(MIC), listed per entry.
Test system: Pseudomonas aeruginosa
test: Antibacterial activity against Pseudomonas aeruginosa PA14 assessed as growth inhibition after 18 to 20 hrs in presence of PMBN by broth microdilution assay
Format: functional
condition.label: time 18-20 hrs
value.kind: log10(MIC) (log10 of the value in µg/mL)

{"entry.smiles": "C[C@@H]1O[C@H](CNS(=O)(=O)c2ccc(CCn3cc(CN4CCN(c5cc6c(cc5F)c(=O)c(C(=O)O)cn6C5CC5)CC4)nn3)s2)[C@@H](O)[C@H](O)[C@@H]1O", "log10(MIC)": 1.81}
{"entry.smiles": "O=C(Cn1cc(CCN2CCN(c3cc4c(cc3F)c(=O)c(C(=O)O)cn4C3CC3)CC2)nn1)Nc1ccc(S[C@@H]2O[C@H](CO)[C@H](O)[C@H](O)[C@H]2O)cc1", "log10(MIC)": 1.20}
{"entry.smiles": "O=C(CCCCn1cc(CN2CCN(c3cc4c(cc3F)c(=O)c(C(=O)O)cn4C3CC3)CC2)nn1)Nc1ccc(S[C@@H]2O[C@H](CO)[C@H](O)[C@H](O)[C@H]2O)cc1", "log10(MIC)": 0.30}
{"entry.smiles": "O=C(CCCn1cc(CN2CCN(c3cc4c(cc3F)c(=O)c(C(=O)O)cn4C3CC3)CC2)nn1)Nc1ccc(S[C@@H]2O[C@H](CO)[C@H](O)[C@H](O)[C@H]2O)cc1", "log10(MIC)": 0.60}
{"entry.smiles": "C#CCN1CCN(c2cc3c(cc2F)c(=O)c(C(=O)O)cn3C2CC2)CC1", "log10(MIC)": -1.60}
{"entry.smiles": "C[C@@H]1O[C@H](CNS(=O)(=O)c2ccc(CCn3cc(CCN4CCN(c5cc6c(cc5F)c(=O)c(C(=O)O)cn6C5CC5)CC4)nn3)s2)[C@@H](O)[C@H](O)[C@@H]1O", "log10(MIC)": 1.81}

Cited source for all entries: ChEMBL document CHEMBL4673246
